biological target: TMPRSS2 (Homo sapiens)
Sequence (O15393 whole entry): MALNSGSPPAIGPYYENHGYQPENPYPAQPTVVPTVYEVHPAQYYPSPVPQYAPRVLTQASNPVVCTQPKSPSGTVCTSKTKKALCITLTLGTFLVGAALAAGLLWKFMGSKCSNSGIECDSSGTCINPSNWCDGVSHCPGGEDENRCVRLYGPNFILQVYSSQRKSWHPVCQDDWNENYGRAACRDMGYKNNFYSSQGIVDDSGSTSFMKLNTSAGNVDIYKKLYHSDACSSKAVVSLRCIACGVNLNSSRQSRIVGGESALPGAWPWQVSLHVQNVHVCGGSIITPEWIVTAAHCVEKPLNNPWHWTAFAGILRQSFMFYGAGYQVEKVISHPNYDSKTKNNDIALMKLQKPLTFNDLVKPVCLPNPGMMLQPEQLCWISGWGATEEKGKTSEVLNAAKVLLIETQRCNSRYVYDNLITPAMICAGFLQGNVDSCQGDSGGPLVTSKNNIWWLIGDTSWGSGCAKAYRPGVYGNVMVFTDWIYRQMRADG
The entries below are paired with their reported IC50.
Report the figure in µM without appending any unit label.

Find IC50 for N=C(N)c1ccc(-c2ccc(-c3ccc(C(=N)N)cc3)o2)cc1 [Compound 7] on TMPRSS2 (Homo sapiens) and write it down. 82.7

Find IC50 for N=C(N)c1ccc2nc(-c3cccc(-c4nc5ccc(C(=N)N)cc5[nH]4)c3)[nH]c2c1 [Compound 12] on TMPRSS2 (Homo sapiens) and write it down. 4.89

Find IC50 for N=C(N)c1ccc(OCCCCCOc2ccc(C(=N)N)cc2)cc1 [Pentamidine, pentamidine, reference compound] on TMPRSS2 (Homo sapiens) and write it down. 3.98

Find IC50 for N=C(N)c1ccc2nc(-c3ccc(-c4cccc(-c5ccc(-c6nc7ccc(C(=N)N)cc7[nH]6)cc5)n4)cc3)[nH]c2c1 [Compound 13] on TMPRSS2 (Homo sapiens) and write it down. 72.4

====

The entries below are paired with their reported pIC50.
tested on: ACE2/TMPRSS2-dependant SARS-CoV-2 S protein-mediated membrane fusion; experiment: microbe, parasite or virus in culture; assay type: cell-based; conditions: Severe acute respiratory syndrome coronavirus 2, read-out: S2TA Assay IC50
Here pIC50 is given on a logarithmic scale as minus log10 of the concentration in mol/L.

For the compound N=C(N)c1ccc(OCCCCCOc2ccc(C(=N)N)cc2)cc1 [Pentamidine, pentamidine, reference compound] , give its reported pIC50. 4.49

For the compound CC(C)NC(=N)c1ccc2nc(-c3ccc(-c4cccc(-c5ccc(-c6nc7ccc(C(=N)NC(C)C)cc7[nH]6)cc5)n4)cc3)[nH]c2c1 [Compound 14] , give its reported pIC50. 4.77

For the compound N=C(N)c1ccc2nc(-c3ccc(-c4cccc(-c5ccc(-c6nc7ccc(C(=N)N)cc7[nH]6)cc5)n4)cc3)[nH]c2c1 [Compound 13] , give its reported pIC50. 4.86

====

target: factor Xa (Homo sapiens, UniProt P00742)
Sequence (P00742 235-488 limits assumed): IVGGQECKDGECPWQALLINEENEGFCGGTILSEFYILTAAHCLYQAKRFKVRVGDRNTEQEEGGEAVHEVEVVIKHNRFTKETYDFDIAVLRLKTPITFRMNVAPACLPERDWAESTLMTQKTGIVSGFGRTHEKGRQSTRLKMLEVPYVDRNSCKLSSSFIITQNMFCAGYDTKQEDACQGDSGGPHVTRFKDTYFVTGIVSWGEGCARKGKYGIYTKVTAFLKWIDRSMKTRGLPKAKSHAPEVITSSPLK
Sequence (P00742 41-179 partner limits assumed): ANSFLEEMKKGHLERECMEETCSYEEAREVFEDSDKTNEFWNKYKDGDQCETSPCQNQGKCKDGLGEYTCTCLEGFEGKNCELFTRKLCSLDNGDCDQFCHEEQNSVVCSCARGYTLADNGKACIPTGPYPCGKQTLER
measured.parameter: pIC50
Here pIC50 is given on a logarithmic scale as minus log10 of the concentration in mol/L.

In the examples that follow, each entry is paired with its recorded pIC50.
N=C(N)c1ccc2nc(-c3cccc(-c4nc5ccc(C(=N)N)cc5[nH]4)n3)[nH]c2c1 ... 5.23
N=C(N)c1ccc2nc(-c3ccc(-c4cccc(-c5ccc(-c6nc7ccc(C(=N)N)cc7[nH]6)cc5)n4)cc3)[nH]c2c1 ... 5.31
N=C(N)c1ccc(OCCCCCOc2ccc(C(=N)N)cc2)cc1 [Pentamidine, pentamidine, reference compound] ... 5.21
N=C(N)c1ccc(-c2ccc(-c3ccc(C(=N)N)cc3)o2)cc1 ... 4.51
N=C(N)c1ccc2nc(-c3cccc(-c4nc5ccc(C(=N)N)cc5[nH]4)c3)[nH]c2c1 ... 4.47

For the molecule N=C(N)c1ccc2cc(OC(=O)c3ccc(N=C(N)N)cc3)ccc2c1 [Nafamostat, nafamostat, reference compound] , give its reported pIC50. 5.76

====

The entries below are paired with their reported pIC50.
tested on: ACE2/TMPRSS2-dependant SARS-CoV-2 S protein-mediated membrane fusion; experiment: microbe, parasite or virus in culture; type: cell-based; settings: Severe acute respiratory syndrome coronavirus 2, read-out: S2TA Assay IC50
pIC50: −log10 of the molar value.

For the compound N=C(N)c1ccc(-c2ccc(-c3ccc(C(=N)N)cc3)o2)cc1 [Compound 7] , give its reported pIC50. < 4.00

For the compound N=C(N)c1ccc2nc(-c3cccc(-c4nc5ccc(C(=N)N)cc5[nH]4)c3)[nH]c2c1 [Compound 12] , give its reported pIC50. < 4.00

For the compound CC(C)NC(=N)c1ccc2nc(-c3cccc(-c4nc5ccc(C(=N)NC(C)C)cc5[nH]4)n3)[nH]c2c1 [Compound 11] , give its reported pIC50. < 4.00

Data origin, for the record: paper PMC10223987
